test system: c-Src protein; test: Src kinase phosphorylation of biotinylated cdc2 substrate, fluorescence (DELFIA); format: biochemical, human
REPORTED PROPERTY: SRC % inhib at 10 μM (%)
Express your answer in %, writing the number without its unit.

Consider the following illustrative entries.
SMILES DATA | EXPERIMENTAL TARGET | SRC % inhib at 10 μM (%)
COc1ccc(OC)c(S(=O)(=O)Nc2ccc3[nH]nc(-c4ccccc4)c3c2)c1 | c-Src protein | 36
CCCCN(CCCC)c1cccc2c(S(=O)(=O)Nc3ccc4[nH]nc(-c5ccccc5)c4c3)cccc12 | c-Src protein | 88
O=C(O)c1cccc(S(=O)(=O)Nc2ccc3[nH]nc(-c4ccccc4)c3c2)c1 | c-Src protein | 24
O=S(=O)(Nc1ccc2[nH]nc(-c3ccccc3)c2c1)c1cc(F)cc(F)c1 | c-Src protein | 75
O=S(=O)(Nc1ccc2[nH]nc(-c3ccccc3)c2c1)c1ccccc1F | c-Src protein | 44

Qu. Would you kindly share the measured SRC % inhib at 10 μM for O=S(=O)(Nc1ccc2[nH]nc(-c3ccccc3)c2c1)c1cccc(F)c1 ?
Ans. 55

Qu. Name the reported SRC % inhib at 10 μM value associated with the compound O=S(=O)(Nc1ccc2[nH]nc(-c3ccccc3)c2c1)c1cccc(Br)c1
Ans. 43

Qu. Need SRC % inhib at 10 μM, item Cc1ccccc1S(=O)(=O)Nc1ccc2[nH]nc(-c3ccccc3)c2c1
Ans. 18

Qu. Entry under review: O=S(=O)(Nc1ccc2[nH]nc(-c3ccccc3)c2c1)c1ccc(F)cc1 . Reported SRC % inhib at 10 μM?
Ans. 39

Qu. Give the measured SRC % inhib at 10 μM of CN(C)c1ccc(-c2n[nH]c3ccc(NS(=O)(=O)c4ccccc4S(C)(=O)=O)cc23)cc1 .
Ans. 46

Qu. For the compound shown here, O=S(=O)(Nc1ccc2[nH]nc(-c3ccccc3)c2c1)c1ccccc1C(F)(F)F , give the reported SRC % inhib at 10 μM.
Ans. 42

Qu. Query (compound): CS(=O)(=O)c1ccccc1S(=O)(=O)Nc1ccc2[nH]nc(-c3ccc(Cl)cc3)c2c1 ; field requested: SRC % inhib at 10 μM
Ans. 72

Qu. Requested read-out: SRC % inhib at 10 μM. Entry: O=S(=O)(Nc1ccc2[nH]nc(-c3ccccc3)c2c1)c1cc(Cl)cc(Cl)c1
Ans. 59

Qu. # query: SRC % inhib at 10 μM of entry O=S(=O)(Nc1ccc2[nH]nc(-c3ccccc3)c2c1)c1cccc(Cl)c1
Ans. 62

Qu. Would you mind telling me what SRC % inhib at 10 μM value was observed for O=S(=O)(Nc1ccc2[nH]nc(-c3ccccc3)c2c1)c1cccc(C(F)(F)F)c1 ?
Ans. 18

Qu. Which value of SRC % inhib at 10 μM has been reported for CS(=O)(=O)c1ccccc1S(=O)(=O)Nc1ccc2[nH]nc(-c3ccc([N+](=O)[O-])cc3)c2c1 in the records?
Ans. 90

Qu. Entry O=S(=O)(Nc1ccc2[nH]nc(-c3ccccc3)c2c1)c1cccnc1 : reported SRC % inhib at 10 μM = ?
Ans. 83

###

target: human IGF1R cytoplasmic domain (Homo sapiens, UniProt P08069); construct: The human IGF1R cytoplasmic domain was cloned; made in house; host or cells: SF21 insect cells (baculovirus); assay: IGF1R autophosphorylation inhibition, time resolved fluorescence (HTRF) assay; type: biochemical; settings: 10 μM; read-out: IGF1R % inhib at 10 μM
Sequence (P08069 960-1367 limits assumed): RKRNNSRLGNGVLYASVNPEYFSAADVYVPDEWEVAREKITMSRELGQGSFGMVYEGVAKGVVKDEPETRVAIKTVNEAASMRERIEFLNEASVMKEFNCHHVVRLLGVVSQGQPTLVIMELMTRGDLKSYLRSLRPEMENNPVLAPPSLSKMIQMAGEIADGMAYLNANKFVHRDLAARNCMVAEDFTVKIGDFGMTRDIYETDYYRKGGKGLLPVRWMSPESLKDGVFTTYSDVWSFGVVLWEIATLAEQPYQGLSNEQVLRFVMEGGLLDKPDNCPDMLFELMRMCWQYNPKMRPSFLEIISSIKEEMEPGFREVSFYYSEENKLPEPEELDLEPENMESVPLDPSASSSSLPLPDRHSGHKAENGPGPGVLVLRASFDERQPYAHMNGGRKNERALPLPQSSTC
Records here are stratified by inhibition at 10 µM; strata: class 1 (below 70%), class 2 (70% to below 80%), class 3 (80% or more)

Would you please look over these solved cases?
COMPOUND | EXPERIMENTAL TARGET | GROUP LABEL
O=S(=O)(Nc1ccc2[nH]nc(-c3ccccc3)c2c1)c1cccc2ccccc12 [Example 106] | human IGF1R cytoplasmic domain (Homo sapiens, UniProt P08069) | class 3
CS(=O)(=O)c1ccccc1S(=O)(=O)Nc1ccc2[nH]nc(-c3cccc(Br)c3)c2c1 [Example 184] | human IGF1R cytoplasmic domain (Homo sapiens, UniProt P08069) | class 2
CS(=O)(=O)c1ccccc1S(=O)(=O)Nc1ccc2[nH]nc(-c3ccc(C(F)(F)F)cc3)c2c1 [Example 176] | human IGF1R cytoplasmic domain (Homo sapiens, UniProt P08069) | class 3

Qu. Band for the recorded inhibition at 10 µM of CSc1ccc(-c2n[nH]c3ccc(NS(=O)(=O)c4ccccc4S(C)(=O)=O)cc23)cc1 [Example 172] ?
Ans. class 3

Qu. Classify this compound: O=S(=O)(Nc1ccc2[nH]nc(-c3ccccc3)c2c1)C1CCNCC1 [Example 100]
Ans. class 1

Qu. Sort into band: CCOc1ccc(-c2n[nH]c3ccc(NS(=O)(=O)c4ccccc4S(C)(=O)=O)cc23)cc1 [Example 190]
Ans. class 2

Qu. Could you place CCSc1ccc(-c2n[nH]c3ccc(NS(=O)(=O)c4ccccc4S(C)(=O)=O)cc23)cc1 [Example 213] in its proper category? Many thanks.
Ans. class 2

Qu. Category of CS(=O)(=O)c1ccccc1S(=O)(=O)Nc1ccc2[nH]nc(-c3ccc(OCc4ccccc4)c(F)c3)c2c1 [Example 194] , please.
Ans. class 1

Qu. Which inhibition at 10 µM band matches CS(=O)(=O)c1ccc(F)cc1S(=O)(=O)Nc1ccc2[nH]nc(-c3ccccc3)c2c1 [Example 93] ?
Ans. class 3

Qu. Using the reported inhibition at 10 µM, which band applies to CS(=O)(=O)c1ccccc1S(=O)(=O)Nc1ccc2[nH]nc(-c3ccc(Cl)cc3Cl)c2c1 [Example 163] ?
Ans. class 1

Qu. Band for the recorded inhibition at 10 µM of CS(=O)(=O)c1ccccc1S(=O)(=O)Nc1ccc2[nH]nc(-c3ccc(OC(F)(F)F)cc3)c2c1 [Example 206] ?
Ans. class 1

Qu. # bin label for CC(=O)c1ccc(-c2n[nH]c3ccc(NS(=O)(=O)c4ccccc4S(C)(=O)=O)cc23)cc1 [Example 207]
Ans. class 1

Qu. // bin(item) where item = Cc1ccccc1S(=O)(=O)Nc1ccc2[nH]nc(-c3ccccc3)c2c1 [Example 132]
Ans. class 2

Qu. Band for O=S(=O)(Nc1ccc2[nH]nc(-c3ccccc3)c2c1)c1ccc(F)c(F)c1 [Example 152] ?
Ans. class 1

###

molecular target: human FAK (Homo sapiens); construct: The complete cDNA of human FAK; made in house; host or cells: baculovirus expression system (vector pFastBac HTc); assay: FAK autophosphorylation inhibition, time resolved fluorescence (HTRF) assay; assay type: biochemical; details: 10 μM (values without asterisk); read-out: FAK % inhib at 10 μM
REPORTED PROPERTY: inhibition at 10 µM
Show the value, then the unit it is measured in.

Use these answered entries as a reference point.
MOLECULE | inhibition at 10 µM
CN(C)c1ccc(-c2n[nH]c3ccc(NS(=O)(=O)c4ccccc4S(C)(=O)=O)cc23)cc1 [Example 63] | 94%
Cc1cc(C)c(S(=O)(=O)Nc2ccc3[nH]nc(-c4ccccc4)c3c2)c(C)c1 [Example 115] | 31%
O=S(=O)(Nc1ccc2[nH]nc(-c3ccccc3)c2c1)c1cccc2cccnc12 [Example 111] | 66%

# evaluate next
Qu. Missing value: inhibition at 10 µM, human FAK (Homo sapiens), entry O=[N+]([O-])c1ccc(S(=O)(=O)Nc2ccc3[nH]nc(-c4ccccc4)c3c2)cc1 [Example 119] . Fill in?
Ans. 25%

###

biological target: human FAK (Homo sapiens, UniProt Q05397); construct: The complete cDNA of human FAK; made in house; host or cells: baculovirus expression system (vector pFastBac HTc); assay: FAK autophosphorylation inhibition, time resolved fluorescence (HTRF) assay; type: biochemical; settings: 10 μM (values without asterisk); read-out: FAK % inhib at 10 μM
Sequence (Q05397 whole entry): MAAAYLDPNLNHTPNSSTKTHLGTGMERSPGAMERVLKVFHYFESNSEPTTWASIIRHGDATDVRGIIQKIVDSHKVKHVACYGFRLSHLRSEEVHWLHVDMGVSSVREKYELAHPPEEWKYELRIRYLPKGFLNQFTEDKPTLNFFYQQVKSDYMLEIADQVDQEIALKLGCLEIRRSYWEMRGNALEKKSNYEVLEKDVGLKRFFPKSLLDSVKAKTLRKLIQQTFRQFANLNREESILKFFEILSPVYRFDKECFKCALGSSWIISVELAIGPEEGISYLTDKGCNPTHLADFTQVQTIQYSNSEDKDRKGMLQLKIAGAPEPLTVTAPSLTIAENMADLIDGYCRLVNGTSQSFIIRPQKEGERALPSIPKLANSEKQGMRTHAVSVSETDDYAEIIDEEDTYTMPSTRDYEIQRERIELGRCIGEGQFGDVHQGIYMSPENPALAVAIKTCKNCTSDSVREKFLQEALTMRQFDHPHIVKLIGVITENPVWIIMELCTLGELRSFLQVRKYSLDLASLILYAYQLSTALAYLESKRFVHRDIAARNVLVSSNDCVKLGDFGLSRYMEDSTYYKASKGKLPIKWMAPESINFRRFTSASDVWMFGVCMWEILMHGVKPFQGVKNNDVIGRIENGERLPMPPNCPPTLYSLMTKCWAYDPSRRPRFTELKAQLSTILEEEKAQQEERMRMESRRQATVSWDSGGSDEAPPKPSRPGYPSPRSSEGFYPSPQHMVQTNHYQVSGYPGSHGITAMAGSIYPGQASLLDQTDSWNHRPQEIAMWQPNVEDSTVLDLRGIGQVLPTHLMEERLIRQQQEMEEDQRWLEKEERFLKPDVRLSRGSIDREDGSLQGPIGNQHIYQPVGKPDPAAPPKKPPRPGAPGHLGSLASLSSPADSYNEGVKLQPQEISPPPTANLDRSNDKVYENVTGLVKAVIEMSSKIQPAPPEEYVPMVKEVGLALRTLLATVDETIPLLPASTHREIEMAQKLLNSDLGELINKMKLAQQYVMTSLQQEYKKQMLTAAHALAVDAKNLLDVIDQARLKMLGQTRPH
Label rule, in plain words: inhibition at 10 µM of 80% and up is satisfied, under 80% is not satisfied.

COMPOUND | GROUP LABEL
CS(=O)(=O)c1ccccc1S(=O)(=O)Nc1ccc2[nH]nc(-c3cccc(Cl)c3Cl)c2c1 [Example 208] | not satisfied
CS(=O)(=O)c1ccccc1S(=O)(=O)Nc1ccc2[nH]nc(-c3cccc(F)c3)c2c1 [Example 182] | satisfied
CS(=O)(=O)c1ccccc1S(=O)(=O)Nc1ccc2[nH]nc(-c3ccccc3N)c2c1 [Example 49] | not satisfied
CS(=O)(=O)c1ccccc1S(=O)(=O)Nc1ccc2[nH]nc(-c3cc(Cl)ccc3Cl)c2c1 [Example 225] | not satisfied
CS(=O)(=O)c1ccccc1S(=O)(=O)Nc1ccc2[nH]nc(-c3cccc(N)c3)c2c1 [Example 62] | satisfied
Cc1ccccc1-c1n[nH]c2ccc(NS(=O)(=O)c3ccccc3S(C)(=O)=O)cc12 [Example 105] | not satisfied
CS(=O)(=O)c1ccccc1S(=O)(=O)Nc1ccc2[nH]nc(-c3cccc(OC(F)(F)F)c3)c2c1 [Example 219] | satisfied
CS(=O)(=O)c1ccccc1S(=O)(=O)Nc1ccc2[nH]nc(NC(=O)c3ccccc3)c2c1 [Example 45] | satisfied

Qu. # bool: inhibition at 10 µM of CS(=O)(=O)c1ccccc1S(=O)(=O)Nc1ccc2[nH]nc(-c3ccc(C#N)cc3)c2c1 [Example 216] >= 80%
Ans. satisfied
